Reported pIC50 by item:
Biological target: Gamma-secretase
Assay: Inhibition of gamma-secretase in HEK293 cells using human APP Swedish/London double mutant as substrate assessed as formation of amyloid beta 42 after 5 to 6 hrs by sandwich immunoassay
Type: cell-based
# log scale: pIC50 equals minus log10 of the concentration in mol/L

Worked examples, 2 compounds total:
| given.smiles | experimental.target | result.type | measured |
| --- | --- | --- | --- |
| CC1(C)OCC2(CCC[C@@]3(S(=O)(=O)c4ccc(Cl)cc4)c4c(F)ccc(F)c4OC[C@@H]23)CO1 | Gamma-secretase | pIC50 | 7.92 |
| O=S(=O)(N1CC[C@]2(CCC[C@@]3(S(=O)(=O)c4ccc(Cl)cc4)c4c(F)ccc(F)c4OC[C@@H]23)C1)C(F)(F)F | Gamma-secretase | pIC50 | 8.10 |

Documented pIC50 of O=S(=O)(c1ccc(Cl)cc1)[C@@]12CCCC3(COC3)[C@@H]1COc1c(F)ccc(F)c12 : 8.15
